Experimental Protocol: Kinetic solubility of compound in PBS buffer at pH 7 incubated for 15 mins by HPLC-UV analysis
Result Type: solubility kinetic at 0.25 h (µM)

A selection of reference data follows.
Smi	U	solubility kinetic at 0.25 h
CN1CCN(C2CCN(C(=O)Nc3cc(Oc4cc(F)c(NC(=O)c5cc6c(n(-c7ccccc7)c5=O)CCCC6=O)cc4F)ccn3)CC2)CC1	µM	43
CN1CCC(CC(=O)Nc2cc(Oc3ccc(NC(=O)c4cc5c(n(-c6ccccc6)c4=O)CCCC5=O)c(F)c3)ccn2)CC1	µM	73
CC(C)n1cc(C(=O)Nc2ccc(Oc3ccnc(NC(=O)CC4CCN(C)CC4)c3)cc2)c(=O)n(-c2ccc(F)cc2)c1=O	µM	80
CN1CCC(CC(=O)Nc2cc(Oc3ccc(NC(=O)c4cc5c(n(-c6ccccc6)c4=O)CCCC5=O)cc3F)ccn2)CC1	µM	75

a. CN1CCC(CC(=O)Nc2cc(Oc3ccc(NC(=O)c4cc5c(n(-c6ccccc6)c4=O)CCCC5=O)cc3)ccn2)CC1
b. CC(C)n1cc(C(=O)Nc2ccc(Oc3cc(NC(=O)N4CCC4)ncn3)cc2)c(=O)n(-c2ccc(F)cc2)c1=O
c. CC(C)n1cc(C(=O)Nc2ccc(Oc3cc(NC(=O)N4CCCC4)ncn3)cc2)c(=O)n(-c2ccc(F)cc2)c1=O
Your job: order these 3 records by solubility kinetic at 0.25 h, ascending. Put the labels in the requested order and write them down.
c, b, a
(c: 1 µM, b: 36 µM, a: 77 µM)

---

Experimental Protocol: AUC (0 to 24 hrs) in CAnN.Cg-Foxnlnu/Cr1Crlj mouse at 100 mg/kg, po measured upto 24 hrs by LC-MS/MS analysis
Format: ADME, organism-based
Design: route oral, dose 100 mg/kg, time <=24
Assay Setup: in vivo
Result Type: AUC(0-t) (ng·h/mL)
# unit: ng·h/mL | format: bare number

Entry "CC(C)n1cc(C(=O)Nc2ccc(Oc3cc(NC(=O)N4CCC(N5CCN(C)CC5)CC4)ncn3)cc2)c(=O)n(-c2ccc(F)cc2)c1=O" has what AUC(0-t)?
72700

---

Experimental Protocol: Kinetic solubility of compound in PBS buffer at pH 7 incubated for 15 mins by HPLC-UV analysis
Result Type: solubility kinetic at 0.25 h (µM)

A selection of reference data follows.
Smi	solubility kinetic at 0.25 h (µM)
CC(C)n1cc(C(=O)Nc2ccc(Oc3cc(NC(=O)N4CC(O)C4)ncn3)cc2)c(=O)n(-c2ccc(F)cc2)c1=O	83
CN1CCC(CC(=O)Nc2cc(Oc3ccc(NC(=O)c4cn(C5CC5)c(=O)n(-c5ccc(F)cc5)c4=O)cc3F)ccn2)CC1	82

a. CC(C)n1cc(C(=O)Nc2cc(F)c(Oc3ccnc(NC(=O)N4CCC(N5CCN(C)CC5)CC4)c3)cc2F)c(=O)n(-c2ccc(F)cc2)c1=O
b. CC(C)n1cc(C(=O)Nc2ccc(Oc3ccnc(NC(=O)CN(C)C)c3)cc2)c(=O)n(-c2ccc(F)cc2)c1=O
Min solubility kinetic at 0.25 h? a | b Return value: the label identifying the chosen record.
b
(b: 32 µM, a: 76 µM)

---

Experimental Protocol: Tmax in CAnN.Cg-Foxnlnu/Cr1Crlj mouse at 30 mg/kg, po measured upto 24 hrs by LC-MS/MS analysis
Type: ADME, organism-based
Assay Setup: in vivo
Result Type: Tmax (h)
# unit: h | format: bare number

Entry "CC(C)n1cc(C(=O)Nc2ccc(Oc3cc(NC(=O)N4CCC(N5CCN(C)CC5)CC4)ncn3)cc2)c(=O)n(-c2ccc(F)cc2)c1=O" has what Tmax?
2

---

Experimental Protocol: Tmax in CAnN.Cg-Foxnlnu/Cr1Crlj mouse at 100 mg/kg, po measured upto 24 hrs by LC-MS/MS analysis
Format: ADME, organism-based
Assay Setup: in vivo
Result Type: Tmax (h)
# unit: h | format: bare number

Entry "CC(C)n1cc(C(=O)Nc2ccc(Oc3cc(NC(=O)N4CCC(N5CCN(C)CC5)CC4)ncn3)cc2)c(=O)n(-c2ccc(F)cc2)c1=O" has what Tmax?
2

---

Experimental Protocol: Metabolic stability in mouse liver microsomes assessed as residual ratio measured after 30 mins in presence of NADPH by LC-MS/MS analysis relative to absence of NADPH
Assay type: ADME, Microsome
Assay Setup: read-out: Stabilty
Result Type: remaining at 0.5 h (%)

A. CN1CCN(C2CCN(C(=O)Nc3cc(Oc4ccc(NC(=O)c5cn(C6CCCC6)c(=O)n(-c6ccc(F)cc6)c5=O)cc4)ncn3)CC2)CC1
B. CC(C)n1cc(C(=O)Nc2ccc(Oc3cc(NC(=O)N4CC(N5CCCC5)C4)ncn3)cc2)c(=O)n(-c2ccc(F)cc2)c1=O
Min remaining at 0.5 h? A | B Return value: the label identifying the chosen record.
B

---

Experimental Protocol: Metabolic stability in mouse liver microsomes assessed as residual ratio measured after 30 mins in presence of NADPH by LC-MS/MS analysis relative to absence of NADPH
Assay type: ADME, Microsome
Assay Setup: read-out: Stabilty
Result Type: remaining at 0.5 h (%)

Smi	remaining at 0.5 h, %
CC(C)n1cc(C(=O)Nc2cc(F)c(Oc3ccnc(NC(=O)N4CCC(N5CCN(C)CC5)CC4)c3)cc2F)c(=O)n(-c2ccc(F)cc2)c1=O	86
CN1CCC(CC(=O)Nc2cc(Oc3ccc(NC(=O)c4cc5c(n(-c6ccccc6)c4=O)CCCC5=O)cc3F)ccn2)CC1	71
CN1CCN(C2CCN(C(=O)Nc3cc(Oc4cc(F)c(NC(=O)c5cc6c(n(-c7ccccc7)c5=O)CCCC6=O)cc4F)ccn3)CC2)CC1	78
CN1CCC(CC(=O)Nc2cc(Oc3ccc(NC(=O)c4cn(C5CC5)c(=O)n(-c5ccc(F)cc5)c4=O)cc3F)ccn2)CC1	78
CN1CCC(CC(=O)Nc2cc(Oc3cc(F)c(NC(=O)c4cc5c(n(-c6ccccc6)c4=O)CCCC5=O)cc3F)ccn2)CC1	72
CN1CCC(CC(=O)Nc2cc(Oc3ccc(NC(=O)c4cn(C5CCCC5)c(=O)n(-c5ccc(F)cc5)c4=O)cc3F)ccn2)CC1	63
CN1CCC(CC(=O)Nc2cc(Oc3ccc(NC(=O)c4cc5c(n(-c6ccccc6)c4=O)CCCC5=O)cc3)ccn2)CC1	77

---

Experimental Protocol: Cmax in CAnN.Cg-Foxnlnu/Cr1Crlj mouse at 10 mg/kg, po measured upto 24 hrs by LC-MS/MS analysis
Assay type: ADME, organism-based
Set-up: route oral, dose 10 mg/kg, time <=24
Assay Setup: in vivo
Result Type: Cmax (ng/mL)
# unit: ng/mL | format: bare number

Entry "CC(C)n1cc(C(=O)Nc2ccc(Oc3cc(NC(=O)N4CCC(N5CCN(C)CC5)CC4)ncn3)cc2)c(=O)n(-c2ccc(F)cc2)c1=O" has what Cmax?
1580

---

Experimental Protocol: Cmax in CAnN.Cg-Foxnlnu/Cr1Crlj mouse at 100 mg/kg, po measured upto 24 hrs by LC-MS/MS analysis
Format: ADME, organism-based
Parameters: route oral, dose 100 mg/kg, time <=24
Assay Setup: in vivo
Result Type: Cmax (ng/mL)
# unit: ng/mL | format: bare number

Entry "CC(C)n1cc(C(=O)Nc2ccc(Oc3cc(NC(=O)N4CCC(N5CCN(C)CC5)CC4)ncn3)cc2)c(=O)n(-c2ccc(F)cc2)c1=O" has what Cmax?
13500

---

Experimental Protocol: Cmax in CAnN.Cg-Foxnlnu/Cr1Crlj mouse at 30 mg/kg, po measured upto 24 hrs by LC-MS/MS analysis
Format: ADME, organism-based
Design: route oral, dose 30 mg/kg, time <=24
Assay Setup: in vivo
Result Type: Cmax (ng/mL)
# unit: ng/mL | format: bare number

Entry "CC(C)n1cc(C(=O)Nc2ccc(Oc3cc(NC(=O)N4CCC(N5CCN(C)CC5)CC4)ncn3)cc2)c(=O)n(-c2ccc(F)cc2)c1=O" has what Cmax?
3790

---

Experimental Protocol: Tmax in CAnN.Cg-Foxnlnu/Cr1Crlj mouse at 10 mg/kg, po measured upto 24 hrs by LC-MS/MS analysis
Type: ADME, organism-based
Assay Setup: in vivo
Result Type: Tmax (h)
# unit: h | format: bare number

Entry "CC(C)n1cc(C(=O)Nc2ccc(Oc3cc(NC(=O)N4CCC(N5CCN(C)CC5)CC4)ncn3)cc2)c(=O)n(-c2ccc(F)cc2)c1=O" has what Tmax?
2
